molecular target: RecBCD enzyme subunit RecC (Escherichia coli (strain K12)) + RecBCD enzyme subunit RecB (Escherichia coli (strain K12)) (UniProt P07648+P08394); experiment: RecBCD helicase and Chi cutting inhibitors, late-stage follow-up, counter-screen for AddAB inhibitor project, biochemical, radioactive gel readout, single concentration (AID 623937); details: purified RecBCD, 32P DNA gel autoradiography, at 50 µM
Sequence (P07648 whole entry, looked up): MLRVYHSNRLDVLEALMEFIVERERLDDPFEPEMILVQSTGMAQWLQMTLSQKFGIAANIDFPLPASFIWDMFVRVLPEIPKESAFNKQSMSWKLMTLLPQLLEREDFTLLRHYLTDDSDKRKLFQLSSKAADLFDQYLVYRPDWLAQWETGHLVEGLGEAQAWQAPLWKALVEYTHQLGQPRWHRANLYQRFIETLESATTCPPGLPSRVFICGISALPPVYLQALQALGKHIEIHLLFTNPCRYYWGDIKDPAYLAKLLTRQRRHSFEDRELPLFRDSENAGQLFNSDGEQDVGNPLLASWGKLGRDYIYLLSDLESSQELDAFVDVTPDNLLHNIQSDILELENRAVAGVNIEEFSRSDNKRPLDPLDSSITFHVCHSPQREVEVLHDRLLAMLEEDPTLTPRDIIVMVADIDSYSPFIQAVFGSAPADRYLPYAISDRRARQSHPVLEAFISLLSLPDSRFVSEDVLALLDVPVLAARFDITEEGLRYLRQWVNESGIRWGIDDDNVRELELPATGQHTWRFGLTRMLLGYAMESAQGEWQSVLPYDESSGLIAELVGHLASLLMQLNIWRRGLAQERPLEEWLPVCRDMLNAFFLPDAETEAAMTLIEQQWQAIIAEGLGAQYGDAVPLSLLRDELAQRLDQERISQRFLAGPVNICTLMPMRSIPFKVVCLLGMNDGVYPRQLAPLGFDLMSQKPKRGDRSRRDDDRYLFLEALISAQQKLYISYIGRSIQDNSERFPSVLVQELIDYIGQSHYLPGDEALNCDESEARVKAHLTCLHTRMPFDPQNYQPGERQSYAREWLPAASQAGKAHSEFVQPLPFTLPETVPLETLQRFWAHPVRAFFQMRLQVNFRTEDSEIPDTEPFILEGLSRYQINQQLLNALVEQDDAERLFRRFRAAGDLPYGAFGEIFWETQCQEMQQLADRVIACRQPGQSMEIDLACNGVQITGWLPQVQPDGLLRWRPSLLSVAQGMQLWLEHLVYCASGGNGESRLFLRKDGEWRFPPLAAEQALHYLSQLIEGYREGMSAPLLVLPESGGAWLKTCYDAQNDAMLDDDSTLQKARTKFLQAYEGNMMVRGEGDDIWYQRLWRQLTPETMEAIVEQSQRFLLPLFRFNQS
Sequence (P08394 whole entry, looked up): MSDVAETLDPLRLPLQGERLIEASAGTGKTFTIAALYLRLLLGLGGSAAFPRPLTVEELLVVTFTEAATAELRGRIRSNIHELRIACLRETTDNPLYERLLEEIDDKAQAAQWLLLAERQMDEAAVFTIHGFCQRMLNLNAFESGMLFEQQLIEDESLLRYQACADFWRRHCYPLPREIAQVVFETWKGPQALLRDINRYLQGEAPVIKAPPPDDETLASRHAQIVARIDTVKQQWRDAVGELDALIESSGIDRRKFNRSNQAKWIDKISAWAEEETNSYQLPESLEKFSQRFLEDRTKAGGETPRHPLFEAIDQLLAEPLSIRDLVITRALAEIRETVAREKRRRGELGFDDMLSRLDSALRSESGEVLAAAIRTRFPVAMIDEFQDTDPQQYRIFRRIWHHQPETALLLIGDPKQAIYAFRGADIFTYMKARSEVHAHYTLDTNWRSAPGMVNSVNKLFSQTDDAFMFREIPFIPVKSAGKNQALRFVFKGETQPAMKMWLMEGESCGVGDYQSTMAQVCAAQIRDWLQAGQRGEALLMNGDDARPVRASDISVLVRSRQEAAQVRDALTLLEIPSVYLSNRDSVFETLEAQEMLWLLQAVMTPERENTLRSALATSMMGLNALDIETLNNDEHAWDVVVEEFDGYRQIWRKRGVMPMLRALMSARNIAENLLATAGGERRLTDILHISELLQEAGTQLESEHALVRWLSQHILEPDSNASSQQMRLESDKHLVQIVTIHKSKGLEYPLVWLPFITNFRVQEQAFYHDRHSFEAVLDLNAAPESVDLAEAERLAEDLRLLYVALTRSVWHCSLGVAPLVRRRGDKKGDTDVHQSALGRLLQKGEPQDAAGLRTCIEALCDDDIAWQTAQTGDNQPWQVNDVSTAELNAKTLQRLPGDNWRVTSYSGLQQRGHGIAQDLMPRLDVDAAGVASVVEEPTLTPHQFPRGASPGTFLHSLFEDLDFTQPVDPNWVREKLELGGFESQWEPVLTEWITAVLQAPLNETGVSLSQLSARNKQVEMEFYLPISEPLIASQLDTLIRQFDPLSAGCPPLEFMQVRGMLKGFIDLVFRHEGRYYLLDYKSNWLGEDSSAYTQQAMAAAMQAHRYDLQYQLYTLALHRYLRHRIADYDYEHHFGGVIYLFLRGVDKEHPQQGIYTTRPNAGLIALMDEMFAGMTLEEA
Calls of active or inactive are those of the source.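 How the source made its calls: active means Chi band cutting by RecBCD reduced more than twofold versus the solvent-only control; inactive means reduction of twofold or less versus solvent-only control.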
I would appreciate it if you answered using one of these outcomes: Y (active), N (inactive)

Solved entries (count: 4):
Nc1c(NC(=O)c2ccc([N+](=O)[O-])o2)sc2c1CCCC2; Y
CCn1cc(C(=O)O)c(=O)c2cnc(N3CCN(C(=S)NC(=O)c4ccco4)CC3)nc21; N
N#Cc1c(NC(=O)c2ccc([N+](=O)[O-])o2)sc2c1CCC2; Y
CCn1cc(C(=O)O)c(=O)c2cnc(N3CCN(C(=S)Nc4ccccc4F)CC3)nc21; N

**Q:** What classification did N#Cc1c(NC(=O)c2ccc([N+](=O)[O-])o2)sc2c1CCCC2 end up with in this test?
**A:** N

**Q:** Given Cc1sc(NC(=O)c2ccc(Br)o2)c(C#N)c1C , state the outcome it received in this test.
**A:** N

**Q:** How was CCn1cc(C(=O)O)c(=O)c2cnc(N3CCN(C(=S)Nc4ccccc4C)CC3)nc21 classified in this test?
**A:** N

**Q:** Dear all, I need the recorded test outcome for CCn1cc(C(=O)O)c(=O)c2cnc(N3CCN(C(=S)Nc4ccc5c(c4)OCCO5)CC3)nc21 , thank you.
**A:** Y

**Q:** Recorded test outcome, item CC(=O)Nc1ccc2nc(NC(=O)c3ccc([N+](=O)[O-])o3)sc2c1
**A:** N

**Q:** Tell me the recorded outcome of this test for Cc1ccc(C(=O)Nc2sc3c(c2C#N)CCCCC3)o1 .
**A:** N
